Please go through the items and note down their shrunken log2 fold change.
System: Escherichia coli TOP10
Assay: shrunken log2 fold change of peptide-encoding DNA abundance (4.5 h post-induction vs induction); higher = less antimicrobial activity (less host growth inhibition)
Settings: time post-induction: 4.5 h; library: site-saturation at positions 5, 18, 19, 20
No unit in the answer, only the number.

## Input # returns recorded shrunken log2 fold change (system: Escherichia coli TOP10) for `RRIRPRPPRLPRPRPRPWVHPRP`
## Output -0.0708

## Input # returns recorded shrunken log2 fold change (system: Escherichia coli TOP10) for `RRIRIRPPRLPRPRPRPTRTPRP`
## Output 0.22

## Input # returns recorded shrunken log2 fold change (system: Escherichia coli TOP10) for `RRIRNRPPRLPRPRPRPGKYPRP`
## Output -0.117

## Input # returns recorded shrunken log2 fold change (system: Escherichia coli TOP10) for `RRIRERPPRLPRPRPRPSRIPRP`
## Output -0.234

## Input # returns recorded shrunken log2 fold change (system: Escherichia coli TOP10) for `RRIRVRPPRLPRPRPRPQYWPRP`
## Output -0.265

## Input # returns recorded shrunken log2 fold change (system: Escherichia coli TOP10) for `RRIRVRPPRLPRPRPRPGNFPRP`
## Output -0.131

## Input # returns recorded shrunken log2 fold change (system: Escherichia coli TOP10) for `RRIRWRPPRLPRPRPRPNGMPRP`
## Output -0.0595

## Input # returns recorded shrunken log2 fold change (system: Escherichia coli TOP10) for `RRIRQRPPRLPRPRPRPFGWPRP`
## Output -0.0154

## Input # returns recorded shrunken log2 fold change (system: Escherichia coli TOP10) for `RRIRSRPPRLPRPRPRPERKPRP`
## Output -0.0872

## Input # returns recorded shrunken log2 fold change (system: Escherichia coli TOP10) for `RRIRNRPPRLPRPRPRPMGNPRP`
## Output -0.0658

## Input # returns recorded shrunken log2 fold change (system: Escherichia coli TOP10) for `RRIRTRPPRLPRPRPRPQIVPRP`
## Output 0.0532

## Input # returns recorded shrunken log2 fold change (system: Escherichia coli TOP10) for `RRIRGRPPRLPRPRPRPMWNPRP`
## Output 0.557

## Input # returns recorded shrunken log2 fold change (system: Escherichia coli TOP10) for `RRIRSRPPRLPRPRPRPIHCPRP`
## Output -0.452

## Input # returns recorded shrunken log2 fold change (system: Escherichia coli TOP10) for `RRIRMRPPRLPRPRPRPYHDPRP`
## Output -0.256

## Input # returns recorded shrunken log2 fold change (system: Escherichia coli TOP10) for `RRIRVRPPRLPRPRPRPNDGPRP`
## Output -0.133

## Input # returns recorded shrunken log2 fold change (system: Escherichia coli TOP10) for `RRIRCRPPRLPRPRPRPANFPRP`
## Output -0.0131

## Input # returns recorded shrunken log2 fold change (system: Escherichia coli TOP10) for `RRIRMRPPRLPRPRPRPSPEPRP`
## Output 1.12

## Input # returns recorded shrunken log2 fold change (system: Escherichia coli TOP10) for `RRIRQRPPRLPRPRPRPLPQPRP`
## Output 0.337

## Input # returns recorded shrunken log2 fold change (system: Escherichia coli TOP10) for `RRIRLRPPRLPRPRPRPPQSPRP`
## Output 0.0818

## Input # returns recorded shrunken log2 fold change (system: Escherichia coli TOP10) for `RRIRGRPPRLPRPRPRPERCPRP`
## Output 0.203

## Input # returns recorded shrunken log2 fold change (system: Escherichia coli TOP10) for `RRIRARPPRLPRPRPRPTWCPRP`
## Output 0.325

## Input # returns recorded shrunken log2 fold change (system: Escherichia coli TOP10) for `RRIRSRPPRLPRPRPRPQHEPRP`
## Output -0.296

## Input # returns recorded shrunken log2 fold change (system: Escherichia coli TOP10) for `RRIRERPPRLPRPRPRPNRRPRP`
## Output -0.0103

## Input # returns recorded shrunken log2 fold change (system: Escherichia coli TOP10) for `RRIRLRPPRLPRPRPRPQRIPRP`
## Output -0.141

## Input # returns recorded shrunken log2 fold change (system: Escherichia coli TOP10) for `RRIRRRPPRLPRPRPRPRRYPRP`
## Output 0.0835

## Input # returns recorded shrunken log2 fold change (system: Escherichia coli TOP10) for `RRIRVRPPRLPRPRPRPWLTPRP`
## Output -0.147

## Input # returns recorded shrunken log2 fold change (system: Escherichia coli TOP10) for `RRIRYRPPRLPRPRPRPSCVPRP`
## Output -0.497

## Input # returns recorded shrunken log2 fold change (system: Escherichia coli TOP10) for `RRIRIRPPRLPRPRPRPHEYPRP`
## Output 0.0332

## Input # returns recorded shrunken log2 fold change (system: Escherichia coli TOP10) for `RRIRQRPPRLPRPRPRPAVAPRP`
## Output 0.0726

## Input # returns recorded shrunken log2 fold change (system: Escherichia coli TOP10) for `RRIRERPPRLPRPRPRPHSYPRP`
## Output -0.0459

## Input # returns recorded shrunken log2 fold change (system: Escherichia coli TOP10) for `RRIRERPPRLPRPRPRPCCTPRP`
## Output -0.243

## Input # returns recorded shrunken log2 fold change (system: Escherichia coli TOP10) for `RRIRWRPPRLPRPRPRPEYWPRP`
## Output 0.388

## Input # returns recorded shrunken log2 fold change (system: Escherichia coli TOP10) for `RRIRPRPPRLPRPRPRPPSQPRP`
## Output 0.334

## Input # returns recorded shrunken log2 fold change (system: Escherichia coli TOP10) for `RRIRQRPPRLPRPRPRPVSMPRP`
## Output -0.181

## Input # returns recorded shrunken log2 fold change (system: Escherichia coli TOP10) for `RRIRIRPPRLPRPRPRPTSLPRP`
## Output -0.14

## Input # returns recorded shrunken log2 fold change (system: Escherichia coli TOP10) for `RRIRLRPPRLPRPRPRPYQQPRP`
## Output -0.18

## Input # returns recorded shrunken log2 fold change (system: Escherichia coli TOP10) for `RRIRSRPPRLPRPRPRPVPYPRP`
## Output -0.248

## Input # returns recorded shrunken log2 fold change (system: Escherichia coli TOP10) for `RRIRSRPPRLPRPRPRPVHPPRP`
## Output 0.245

## Input # returns recorded shrunken log2 fold change (system: Escherichia coli TOP10) for `RRIRLRPPRLPRPRPRPLMPPRP`
## Output -0.0944

## Input # returns recorded shrunken log2 fold change (system: Escherichia coli TOP10) for `RRIRERPPRLPRPRPRPTKAPRP`
## Output 0.043

## Input # returns recorded shrunken log2 fold change (system: Escherichia coli TOP10) for `RRIRDRPPRLPRPRPRPTVNPRP`
## Output 0.0689

## Input # returns recorded shrunken log2 fold change (system: Escherichia coli TOP10) for `RRIRNRPPRLPRPRPRPVGNPRP`
## Output -0.00879

## Input # returns recorded shrunken log2 fold change (system: Escherichia coli TOP10) for `RRIRHRPPRLPRPRPRPHFQPRP`
## Output 0.0598

## Input # returns recorded shrunken log2 fold change (system: Escherichia coli TOP10) for `RRIRYRPPRLPRPRPRPARNPRP`
## Output -0.0503

## Input # returns recorded shrunken log2 fold change (system: Escherichia coli TOP10) for `RRIRGRPPRLPRPRPRPLCSPRP`
## Output 0.496

## Input # returns recorded shrunken log2 fold change (system: Escherichia coli TOP10) for `RRIRLRPPRLPRPRPRPMLFPRP`
## Output -0.136

## Input # returns recorded shrunken log2 fold change (system: Escherichia coli TOP10) for `RRIRYRPPRLPRPRPRPGFIPRP`
## Output 2.02

## Input # returns recorded shrunken log2 fold change (system: Escherichia coli TOP10) for `RRIRMRPPRLPRPRPRPMYVPRP`
## Output 0.115

## Input # returns recorded shrunken log2 fold change (system: Escherichia coli TOP10) for `RRIRWRPPRLPRPRPRPSLCPRP`
## Output 0.384

## Input # returns recorded shrunken log2 fold change (system: Escherichia coli TOP10) for `RRIRWRPPRLPRPRPRPTWCPRP`
## Output 0.242

## Input # returns recorded shrunken log2 fold change (system: Escherichia coli TOP10) for `RRIRKRPPRLPRPRPRPCQFPRP`
## Output -0.117

## Input # returns recorded shrunken log2 fold change (system: Escherichia coli TOP10) for `RRIRFRPPRLPRPRPRPRREPRP`
## Output 0.177

## Input # returns recorded shrunken log2 fold change (system: Escherichia coli TOP10) for `RRIRDRPPRLPRPRPRPTLRPRP`
## Output 0.129

## Input # returns recorded shrunken log2 fold change (system: Escherichia coli TOP10) for `RRIRVRPPRLPRPRPRPLVFPRP`
## Output -0.00523

## Input # returns recorded shrunken log2 fold change (system: Escherichia coli TOP10) for `RRIRDRPPRLPRPRPRPTDHPRP`;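 further: peptides expressed intracellularly from a pBAD plasmid library in pooled LB shake-flask culture, induced with 0.3% L-arabinose, DNA abundance read by NGS, three biological replicates, DESeq2 with apeglm shrinkage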
## Output -0.0425
